Target: eqBChE (equine serum BChE) (Equus caballus, UniProt P81908)
Construct: BChE (equine serum BChE (eqBChE)); purchased Sigma-Aldrich (Shanghai, PRC); host or cells: equine serum
Sequence (P81908 whole entry): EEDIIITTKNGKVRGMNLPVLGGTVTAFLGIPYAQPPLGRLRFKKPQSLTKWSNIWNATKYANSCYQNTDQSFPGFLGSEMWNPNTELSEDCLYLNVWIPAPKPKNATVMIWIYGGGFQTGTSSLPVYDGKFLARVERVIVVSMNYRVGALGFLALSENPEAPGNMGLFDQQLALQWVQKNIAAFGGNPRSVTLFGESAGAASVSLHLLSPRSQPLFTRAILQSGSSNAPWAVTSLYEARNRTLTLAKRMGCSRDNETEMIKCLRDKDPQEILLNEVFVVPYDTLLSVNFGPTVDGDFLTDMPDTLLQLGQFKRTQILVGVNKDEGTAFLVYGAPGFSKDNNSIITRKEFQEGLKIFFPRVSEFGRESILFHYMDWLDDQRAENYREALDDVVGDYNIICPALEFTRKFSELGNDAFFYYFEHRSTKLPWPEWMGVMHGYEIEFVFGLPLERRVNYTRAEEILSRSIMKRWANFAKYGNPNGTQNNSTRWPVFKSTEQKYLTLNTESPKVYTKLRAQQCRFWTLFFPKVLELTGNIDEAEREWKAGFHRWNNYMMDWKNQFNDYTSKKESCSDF
Experiment: Modified Ellman's assay, IC50 for eqBChE
Format: biochemical
Conditions: after pre-incubation with the enzyme for 60 min, 37 °C, pH 8; read-out: eqBChE IC50 Mean ± SD
Entries and their log10 of IC50
Values below are the log10 of the recorded IC50, with nM as the unit.

Below, 5 compounds whose answers are already recorded.
**Q:** Which log10 of IC50 value is on record for CCN(C)C(=O)Oc1cccc(C(O)CNc2ccccc2)c1 (stereo not shown) ?
**A:** 2.51

**Q:** What about this compound? CCN(C)C(=O)Oc1cccc(C(O)CNC(C)(C)CC)c1 (stereo not shown)
**A:** 2.23

**Q:** What about this compound? CCN(C)C(=O)Oc1ccc(C(O)CNC(C)(C)CC)cc1 (stereo not shown)
**A:** 3.23

**Q:** What about this compound? CCN(C)C(=O)Oc1cccc(C(O)CN2CCCC2)c1 (stereo not shown)
**A:** 2.32

**Q:** What about this compound? CCN(C)C(=O)Oc1cccc(C(O)CN2CCOCC2)c1 (stereo not shown)
**A:** 3.40

More entries:
**Q:** Which log10 of IC50 value is on record for CCN(C)C(=O)Oc1cccc(C(O)CNC(C)(C)C)c1 (stereo not shown) ?
**A:** 2.57

**Q:** What about this compound? CCN(C)C(=O)Oc1cccc(C(O)CNc2ccc(F)cc2)c1 (stereo not shown)
**A:** 2.28

**Q:** What about this compound? CCN(C)C(=O)Oc1cccc(C(O)CNC2CCCCC2)c1 (stereo not shown)
**A:** 0.95

**Q:** What about this compound? CCN(C)C(=O)Oc1cccc(C(O)CNC(C)(C)c2ccccc2)c1 (stereo not shown)
**A:** 2.51

**Q:** What about this compound? CCN(C)C(=O)Oc1cccc(C(O)CNc2ccc(I)cc2)c1 (stereo not shown)
**A:** 3.24
